Form field: IC50 (one value per entry).
- Test system: thymus cancer cells (Ty-82 cells)
- TEST NAME: Cytotoxicity to thymus cancer cells (Ty-82 cells), WST-1
- TEST PARAMETERS: Homo sapiens, TY82, 72 h, read-out: Ty-82 Cytotoxicity IC50

>  <MOLECULE>
COCCOc1cc2nc(NCCCCNC(=O)CC(C)(C)C)c3nnc(C)n3c2cc1OCCOC

>  <UNIT OF MEASURE>
nM

>  <IC50>
880

$$$$
>  <MOLECULE>
Cc1nnc2c(NCCCCC(=O)NCC(C)C)nc3ccccc3n12

>  <UNIT OF MEASURE>
nM

>  <IC50>
840

$$$$
>  <MOLECULE>
COc1cc2nc(NCCCCNC(=O)c3ccccc3Cl)c3nnc(C)n3c2cc1OC

>  <UNIT OF MEASURE>
nM

>  <IC50>
550

$$$$
>  <MOLECULE>
CC(=O)Nc1ccc2c(c1)nc(NCCCCNC(=O)c1ccccc1)c1nnc(C)n12

>  <UNIT OF MEASURE>
nM

>  <IC50>
680

$$$$
>  <MOLECULE>
COc1cc2nc(NCCCCNC(=O)OCC(C)C)c3nnc(C)n3c2cc1C

>  <UNIT OF MEASURE>
nM

>  <IC50>
230

$$$$
>  <MOLECULE>
COc1cc2nc(NCCCCNC(=O)Oc3ccccc3)c3nnc(C)n3c2cc1OC

>  <UNIT OF MEASURE>
nM

>  <IC50>
170

$$$$
>  <MOLECULE>
COc1ccc2c(c1)nc(NCCCCNC(=O)C(C)(C)C)c1nnc(C)n12

>  <UNIT OF MEASURE>
nM

>  <IC50>
930

$$$$
>  <MOLECULE>
Cc1nnc2c(NCCCCOC(=O)CC(C)(C)C)nc3ccccc3n12

>  <UNIT OF MEASURE>
nM

>  <IC50>
900

$$$$
>  <MOLECULE>
COc1cccc2c1nc(NCCCCNC(=O)OCC(C)C)c1nnc(C)n12

>  <UNIT OF MEASURE>
nM

>  <IC50>
620

$$$$
>  <MOLECULE>
COc1cc2nc(NCCCCNC(=O)C(C)(C)C)c3nnc(C)n3c2cc1OC

>  <UNIT OF MEASURE>
nM

>  <IC50>
420

$$$$
>  <MOLECULE>
Cc1nnc2c(NCCCCNC(=O)c3ccccc3)nc3cc(C(=O)NC(C)C)ccc3n12

>  <UNIT OF MEASURE>
nM

>  <IC50>
550

$$$$
>  <MOLECULE>
CCC(C)C(=O)NCCCCNc1nc2cc(OC)c(OC)cc2n2c(C)nnc12 (centres unmarked)

>  <UNIT OF MEASURE>
nM

>  <IC50>
920

$$$$
>  <MOLECULE>
COCCOc1cc2nc(NCCCCNC(=O)OCC(C)C)c3nnc(C)n3c2cc1OCCOC

>  <UNIT OF MEASURE>
nM

>  <IC50>
600

$$$$
>  <MOLECULE>
Cc1nnc2c(NCCCCNC(=O)CC(C)(C)C)nc3ccccc3n12

>  <UNIT OF MEASURE>
nM

>  <IC50>
860

$$$$
>  <MOLECULE>
Cc1nnc2c(NCCCCNC(=O)c3ccccc3)nc3cc(NC(=O)C(C)C)ccc3n12

>  <UNIT OF MEASURE>
nM

>  <IC50>
510

$$$$
>  <MOLECULE>
COC(=O)c1ccc2c(c1)nc(NCCCCNC(=O)OC(C)(C)C)c1nnc(C)n12

>  <UNIT OF MEASURE>
nM

>  <IC50>
650

$$$$
>  <MOLECULE>
COc1cc2nc(NCCCCNC(=O)Cc3cccs3)c3nnc(C)n3c2cc1OC

>  <UNIT OF MEASURE>
nM

>  <IC50>
27

$$$$
>  <MOLECULE>
Cc1nnc2c(NCCCCNC(=O)NC(C)C)nc3cc4c(cc3n12)OCCO4

>  <UNIT OF MEASURE>
nM

>  <IC50>
680

$$$$
>  <MOLECULE>
Cc1nnc2c(NCCCCNC(=O)c3ccccc3)nc3cc4c(cc3n12)OCCO4

>  <UNIT OF MEASURE>
nM

>  <IC50>
340

$$$$
>  <MOLECULE>
COc1cc2nc(NCCCCNC(=O)CC(C)(C)C)c3nnc(C)n3c2cc1OC

>  <UNIT OF MEASURE>
nM

>  <IC50>
790

$$$$
>  <MOLECULE>
Cc1nnc2c(NCCCCNC(=O)OC(C)(C)C)nc3cc(NC(=O)C(C)C)ccc3n12

>  <UNIT OF MEASURE>
nM

>  <IC50>
490

$$$$
>  <MOLECULE>
COc1ccc2c(c1)nc(NCCCCNC(=O)OC(C)C)c1nnc(C)n12

>  <UNIT OF MEASURE>
nM

>  <IC50>
180

$$$$
>  <MOLECULE>
Cc1nnc2c(NCCCCNC(=O)CC(C)C)nc3cc4c(cc3n12)OCCO4

>  <UNIT OF MEASURE>
nM

>  <IC50>
300

$$$$
>  <MOLECULE>
COc1cc2nc(NCCCCNC(=O)CC(C)C)c3nnc(C)n3c2cc1C

>  <UNIT OF MEASURE>
nM

>  <IC50>
94

$$$$
>  <MOLECULE>
COc1cc2nc(NCCCCNC(=O)c3ccc(C)nc3Cl)c3nnc(C)n3c2cc1OC

>  <UNIT OF MEASURE>
nM

>  <IC50>
370

$$$$
>  <MOLECULE>
COc1ccc2nc(NCCCCNC(=O)c3ccccc3)c3nnc(C)n3c2c1

>  <UNIT OF MEASURE>
nM

>  <IC50>
620

$$$$
>  <MOLECULE>
COc1c(C)ccc2c1nc(NCCCCNC(=O)OC(C)C)c1nnc(C)n12

>  <UNIT OF MEASURE>
nM

>  <IC50>
880

$$$$
>  <MOLECULE>
COc1ccc2c(c1)nc(NCCCCNC(=O)CC(C)C)c1nnc(C)n12

>  <UNIT OF MEASURE>
nM

>  <IC50>
91

$$$$
>  <MOLECULE>
Cc1nnc2c(NCCCCNC(=O)Oc3ccccc3)nc3cc4c(cc3n12)OCCO4

>  <UNIT OF MEASURE>
nM

>  <IC50>
310

$$$$
>  <MOLECULE>
COCCOc1cc2nc(NCCCCNC(=O)CC(C)C)c3nnc(C)n3c2cc1OCCOC

>  <UNIT OF MEASURE>
nM

>  <IC50>
580

$$$$
>  <MOLECULE>
CC(=O)Nc1ccc2c(c1)nc(NCCCCNC(=O)OC(C)(C)C)c1nnc(C)n12

>  <UNIT OF MEASURE>
nM

>  <IC50>
400

$$$$
>  <MOLECULE>
COc1cc2nc(NCCCCNC(=O)OC3CCCC3)c3nnc(C)n3c2cc1OC

>  <UNIT OF MEASURE>
nM

>  <IC50>
58

$$$$
>  <MOLECULE>
COc1cc(C)c2nc(NCCCCNC(=O)OC(C)C)c3nnc(C)n3c2c1

>  <UNIT OF MEASURE>
nM

>  <IC50>
810

$$$$
>  <MOLECULE>
Cc1nnc2c(NCCCCNC(=O)OC(C)(C)C)nc3cc(C(=O)Nc4ccccc4)ccc3n12

>  <UNIT OF MEASURE>
nM

>  <IC50>
840

$$$$
>  <MOLECULE>
Cc1nnc2c(NCCCCNC(=O)C(C)(C)C)nc3cc(NC(=O)C(C)C)ccc3n12

>  <UNIT OF MEASURE>
nM

>  <IC50>
400

$$$$
